Data origin, for the record: ChEMBL document CHEMBL5252509

Molecular target: Serine/threonine-protein kinase Nek7 (Homo sapiens) (UniProt Q8TDX7)
Sequence (Q8TDX7 whole entry, looked up): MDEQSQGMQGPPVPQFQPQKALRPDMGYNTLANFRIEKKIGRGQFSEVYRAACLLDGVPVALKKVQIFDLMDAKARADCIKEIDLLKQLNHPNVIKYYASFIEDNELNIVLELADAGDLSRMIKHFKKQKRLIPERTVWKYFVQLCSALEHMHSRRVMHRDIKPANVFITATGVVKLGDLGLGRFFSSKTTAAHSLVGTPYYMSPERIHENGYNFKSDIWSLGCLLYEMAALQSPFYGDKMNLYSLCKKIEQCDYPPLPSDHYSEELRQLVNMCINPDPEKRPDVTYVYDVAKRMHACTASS
Test: Inhibition of NEK7 (unknown origin) at 10 uM relative to control
test_readout: % control (%)
Respond numerically; units are % and should not be typed.

Output measured % control for this item: Cc1cc(NC(=O)c2cccc(NC(=O)/C=C/CN(C)C)c2)ccc1Nc1nccc(-c2cccnc2)n1
100

Look up % control of Fc1cc(-c2cc[nH]/c(=N/c3ccc(-n4cnc(N5CCOCC5)n4)cc3)n2)cc(N2CCOCC2)c1 and report it.
45

Look up % control of O=C1NC(=O)/C(=C/c2ccc3nccc(-c4ccncc4)c3c2)S1 and report it.
88

State its % control for this compound: CCCS(=O)(=O)Nc1ccc(F)c(C(=O)c2c[nH]c3ncc(-c4ccc(Cl)cc4)cc23)c1F [VEMURAFENIB]
59

Provide % control value for the following compound: CN(C)C/C=C/C(=O)Nc1ccc(C(=O)Nc2cccc(Nc3nccc(-c4cccnc4)n3)c2)cc1
9.8

====

Assignment: determine reported inhibition for the given compounds.
Molecular target: Serine/threonine-protein kinase Nek6 (Homo sapiens)
Assay: Inhibition of NEK6 (unknown origin) at 1 uM relative to control
Answer in %, number only, no unit symbol.

Could you please provide reported inhibition for CC(C)(C)c1nc(-c2cccc(NS(=O)(=O)c3c(F)cccc3F)c2F)c(-c2ccnc(N)n2)s1 ? Thanks!
0.3

Identify the reported inhibition for the following entry. Nc1nccc2scc(-c3ccc4c(c3)CCN4C(=O)Cc3cc(F)ccc3F)c12
0

Read off the recorded inhibition for COc1ccc(C2=C(Nc3cccc(C(=O)O)c3)C(=O)NC2=O)cc1
13

Supply measured inhibition of Cn1cc(-c2ccc3c(c2)CCN3C(=O)Cc2cccc(Cl)c2)c2c(N)ncnc21 in your reply.
11

Could you please provide reported inhibition for Cc1ccc(CC(=O)N2CCc3cc(-c4cn(C)c5ncnc(N)c45)ccc32)cc1 ? Thanks!
19

State its inhibition: c1ccc(-c2ccnc3[nH]ccc23)cc1
0

Query inhibition for CS(=O)(=O)Nc1ccc(-c2ccnc3[nH]ccc23)cc1
0

Identify the reported inhibition for the following entry. COc1ccc(Nc2ncc(C#N)c(Nc3ccccc3C(N)=O)n2)cc1N1CCN(C)CC1
0.1

Identify measured inhibition associated with CC(C)c1nc(-c2cccc(NS(=O)(=O)c3c(F)cccc3F)c2F)c(-c2ccnc(Nc3ccc(N4CCOCC4)nc3)n2)s1
0.9

Query inhibition for O=C1NC(=O)C(c2ccccc2Cl)=C1Nc1cccc(Cl)c1
1

Respond only with inhibition recorded for Cn1cc(-c2cnc(N)c3c(-c4ccc5c(c4)CCN5C(=O)Cc4ccccc4)csc23)cn1
0

Report measured inhibition; entry is COc1cccc(C2=C(Nc3ccc(Cl)c(C(=O)O)c3)C(=O)NC2=O)c1
0

Give the reported inhibition for this compound. COc1cc(Nc2ncc3c(C)nc(-c4cc5ccccc5[nH]4)n3n2)cc(OC)c1OC
70

Consider the compound COc1cc(Nc2ncc3c(C)nc(-c4cccc(Oc5ccccc5)c4)n3n2)cc(OC)c1OC and give its recorded inhibition.
81

Specify reported inhibition for the compound shown: COc1cc(Nc2ncc3c(C)nc(-c4cccc(C(F)(F)F)c4)n3n2)cc(OC)c1OC
9

Tell me its inhibition given Cn1cc(-c2ccc3c(c2)CCN3C(=O)Cc2ccccc2Cl)c2c(N)ncnc21 as the entry.
3

Given the compound Cn1cc(-c2ccc3c(c2)CCN3C(=O)Cc2cccc(C(F)(F)F)c2)c2c(N)ncnc21 , write its reported inhibition.
0

Give the reported value of inhibition for this record: CC(C)c1nc(-c2cccc(NS(=O)(=O)c3ccccc3)c2)c(-c2ccnc(Nc3ccc4c(c3)CN(C)CC4)n2)s1
100

State its inhibition for this compound: COc1cccc(C2=C(Nc3cccc(Cl)c3)C(=O)NC2=O)c1
0

Note down inhibition recorded for Cn1cc(-c2ccc3c(c2)CCN3C(=O)Cc2cc(F)cc(F)c2F)c2c(N)ncnc21
18

Look up and report measured inhibition for this entry: Nc1ncc(-c2cn[nH]c2)c2scc(-c3ccc4c(c3)CCN4C(=O)Cc3ccccc3)c12
3

Given O=c1[nH]ccc2nc(N[C@@H]3CCCNC3)nc(Nc3ccc(S(=O)(=O)N4CCOCC4)cc3)c12 , respond with its inhibition.
54

Respond only with inhibition recorded for Cn1cc(-c2ccc3c(c2)CCN3C(=O)Cc2cccc(F)c2)c2c(N)ncnc21
0

Read the entry Cc1ccccc1CC(=O)N1CCc2cc(-c3cn(C)c4ncnc(N)c34)ccc21 and write its reported inhibition.
0

Query inhibition for COc1cccc(C2=C(Nc3cccc(O)c3)C(=O)NC2=O)c1
0

Item O=S(=O)(c1ccc(-c2ccnc3[nH]ccc23)cc1)N1CCCC1 : provide inhibition
0

Complete the entry with inhibition for Nc1ncc(-c2cccnc2)c2scc(-c3ccc4c(c3)CCN4C(=O)Cc3ccccc3)c12
8

Read the entry Nc1nccc2scc(-c3ccc4c(c3)CCN4C(=O)Cc3ccccc3)c12 and write its reported inhibition.
0

Return value of inhibition for input CN(C)CCNS(=O)(=O)c1ccc(-c2ccnc3[nH]ccc23)cc1 , no commentary.
1

Using known records, supply inhibition for COc1cccc(CC(=O)N2CCc3cc(-c4cn(C)c5ncnc(N)c45)ccc32)c1
18

For the compound CC(C)Oc1ccc2c(-c3ccnc(Nc4ccc(N5CCN(C)CC5)cc4)n3)cnn2n1 , report inhibition.
6.3

Consider the compound Cn1cc(-c2ccc3c(c2)CCN3C(=O)Cc2cc(F)cc(C(F)(F)F)c2)c2c(N)ncnc21 and give its recorded inhibition.
6

Answer with the recorded inhibition of NCCNS(=O)(=O)c1ccc(-c2ccnc3[nH]ccc23)cc1 only.
4

====

Target: Serine/threonine-protein kinase Nek6 (Homo sapiens) (UniProt Q9HC98)
Sequence (Q9HC98 whole entry): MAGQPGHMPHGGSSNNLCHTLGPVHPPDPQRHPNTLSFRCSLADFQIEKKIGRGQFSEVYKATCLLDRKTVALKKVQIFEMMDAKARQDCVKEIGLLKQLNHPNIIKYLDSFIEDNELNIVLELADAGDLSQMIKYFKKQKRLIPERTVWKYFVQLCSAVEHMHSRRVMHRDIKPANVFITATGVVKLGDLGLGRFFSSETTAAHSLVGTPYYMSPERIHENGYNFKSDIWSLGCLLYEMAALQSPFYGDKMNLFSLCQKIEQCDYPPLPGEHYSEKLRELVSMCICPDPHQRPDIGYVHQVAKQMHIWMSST
Test: Inhibition of NEK6 (unknown origin) at 10 uM relative to control
test_readout: % control
In your response, the unit should come after the numeric value.

Please give the documented % control of CCCS(=O)(=O)Nc1ccc(F)c(C(=O)c2c[nH]c3ncc(-c4ccc(Cl)cc4)cc23)c1F
91%

Note down % control recorded for O=C1NC(=O)/C(=C/c2ccc3nccc(-c4ccncc4)c3c2)S1
81%

Item Cc1cc(NC(=O)c2cccc(NC(=O)/C=C/CN(C)C)c2)ccc1Nc1nccc(-c2cccnc2)n1 : provide % control
100%

Give the measured % control for CN(C)C/C=C/C(=O)Nc1cccc(C(=O)Nc2ccc(Nc3nccc(/C(C#N)=C4\Nc5ccccc5S4)n3)cc2)c1
100%

Using known records, supply % control for Cc1ccc(NC(=O)c2ccc(NC(=O)/C=C/CN(C)C)cc2)cc1Nc1nccc(-c2cccnc2)n1
44%

Quickly give me recorded % control for CN(C)C/C=C/C(=O)Nc1ccc(C(=O)Nc2cccc(Nc3nccc(-c4cccnc4)n3)c2)cc1
2.8%

Dear colleague, please send me the reported % control for CN(C)C/C=C/C(=O)Nc1cccc(C(=O)Nc2ccc(Nc3nccc(-c4c(-c5ccccc5)nn5ccccc45)n3)cc2)c1 when you can.
100%

Return value of % control for input CN(C)C/C=C/C(=O)Nc1cccc(C(=O)Nc2ccc(Nc3nccc(-c4cccnc4)n3)cc2)c1 , no commentary.
17%

State its % control: Fc1cc(-c2cc[nH]/c(=N/c3ccc(-n4cnc(N5CCOCC5)n4)cc3)n2)cc(N2CCOCC2)c1
76%

====

Target: Serine/threonine-protein kinase Nek7 (Homo sapiens) (UniProt Q8TDX7)
Assay: Inhibition of NEK7 (unknown origin) at 1 uM relative to control
Answer each item with its documented inhibition.
Write the answer as a number in %, unit excluded.

Fill in reported inhibition for this entry: Cn1cc(-c2cnc(N)c3c(-c4ccc5c(c4)CCN5C(=O)Cc4ccccc4)csc23)cn1
0

Tell me inhibition reported for CC(C)Oc1ccc2c(-c3ccnc(Nc4ccc(N5CCN(C)CC5)cc4)n3)cnn2n1
7.4

Provide measured inhibition value, entry: COc1cc(Nc2ncc3c(C)nc(-c4cccc(C(F)(F)F)c4)n3n2)cc(OC)c1OC
10

State its inhibition for this molecule: Cc1ccc(CC(=O)N2CCc3cc(-c4cn(C)c5ncnc(N)c45)ccc32)cc1
0

Please indicate inhibition recorded for CS(=O)(=O)Nc1ccc(-c2ccnc3[nH]ccc23)cc1
10

Given the molecule Nc1ncc(-c2cn[nH]c2)c2scc(-c3ccc4c(c3)CCN4C(=O)Cc3ccccc3)c12 , write its reported inhibition.
0

Answer with the recorded inhibition for the molecule listed here: CC(C)c1nc(-c2cccc(NS(=O)(=O)c3c(F)cccc3F)c2F)c(-c2ccnc(Nc3ccc(N4CCOCC4)nc3)n2)s1
7.1

Check the records and state inhibition for CC(C)(C)c1nc(-c2cccc(NS(=O)(=O)c3c(F)cccc3F)c2F)c(-c2ccnc(N)n2)s1
1.6

Please report the measured inhibition for COc1cccc(C2=C(Nc3ccc(Cl)c(C(=O)O)c3)C(=O)NC2=O)c1
0

Supply recorded inhibition for COc1cccc(C2=C(Nc3cccc(Cl)c3)C(=O)NC2=O)c1 here.
5

Kindly indicate its recorded inhibition. Item: Cn1cc(-c2ccc3c(c2)CCN3C(=O)Cc2cc(F)cc(F)c2F)c2c(N)ncnc21
0

Check the records and state inhibition for COc1ccc(C2=C(Nc3cccc(C(=O)O)c3)C(=O)NC2=O)cc1
28

For the molecule O=S(=O)(c1ccc(-c2ccnc3[nH]ccc23)cc1)N1CCCC1 , give its measured inhibition value.
20

Could you please provide reported inhibition for NCCNS(=O)(=O)c1ccc(-c2ccnc3[nH]ccc23)cc1 ? Thanks!
0

Dear colleague, please send me the reported inhibition for Cn1cc(-c2ccc3c(c2)CCN3C(=O)Cc2cccc(F)c2)c2c(N)ncnc21 when you can.
0

State, in one line, measured inhibition of Cn1cc(-c2ccc3c(c2)CCN3C(=O)Cc2cccc(C(F)(F)F)c2)c2c(N)ncnc21
11

Quote inhibition reported for COc1cc(Nc2ncc3c(C)nc(-c4cccc(Oc5ccccc5)c4)n3n2)cc(OC)c1OC please.
2

Could you please provide reported inhibition for COc1cccc(CC(=O)N2CCc3cc(-c4cn(C)c5ncnc(N)c45)ccc32)c1 ? Thanks!
11

Complete the entry with inhibition for CN(C)CCNS(=O)(=O)c1ccc(-c2ccnc3[nH]ccc23)cc1
0

Identify measured inhibition corresponding to O=c1[nH]ccc2nc(N[C@@H]3CCCNC3)nc(Nc3ccc(S(=O)(=O)N4CCOCC4)cc3)c12
65
